test system: CAKI-1; assay: NCI tumour cell line growth inhibition, 48 h
The source made the active and inactive calls. No stated cut-off is given here; in the data, active = GI50 up to about 1.1 µM and inactive = higher.
measured-property: GI50

// Input: [O-][S+]1c2ccc(Cl)cc2CC(SSC2Cc3cc(Cl)ccc3[S+]([O-])c3ccccc32)c2ccccc21 (stereo not given) . Output its GI50 only.
> 100 µM (inactive)

// Input: COc1ccc(Cc2cc(OC)c(OC)c(OC)c2)cc1O . Output its GI50 only.
> 24.7 µM (inactive)

// Input: Nc1ccn(C2CC3OCC3O2)c(=O)n1 (stereo not given) . Output its GI50 only.
> 100 µM (inactive)

// Input: O=C(NP(=O)(N1CC1)N1CC1)c1cc(I)ccc1I . Output its GI50 only.
> 22.3 µM (inactive)

// Input: CC1(C)OC[C@@H]([C@H](O)C2C=CC(=O)S2)O1 (stereo not given in full) . Output its GI50 only.
28.1 µM (inactive)

* * *

system: UACC-62; assay: NCI tumour cell line growth inhibition, 48 h
Calls of active or inactive are those of the source. Cut-off read from the data, not from the text of the source: active = GI50 up to about 1.1 µM and inactive = higher.
measured-property: GI50

// Input: O=C(CCl)N1CCCCC1C1(c2cc3ccccc3[nH]2)OCCO1 (centres undefined) . Output its GI50 only.
3.14 µM (inactive)

// Input: COc1cc(OC)nc(-n2c(N)c(C(=O)O)c3ccc([N+](=O)[O-])cc3c2=O)n1 . Output its GI50 only.
> 100 µM (inactive)

// Input: Fc1cccc(C2ON=C(c3ccccc3)N2C23CC4CC(CC(C4)C2)C3)c1 (centres undefined) . Output its GI50 only.
> 10 µM (inactive)

// Input: O=c1[nH]c2nc(S)nc(S)c2[nH]1 . Output its GI50 only.
> 100 µM (inactive)

* * *

tested on: UACC-62; experiment: NCI tumour cell line growth inhibition, 48 h
Active and inactive are the calls of the source. No stated cut-off is given here; in the data, active = GI50 up to about 1.1 µM and inactive = higher.
measured-property: GI50

// Input: O=C1/C(=C/c2ccc(Cl)cc2)N=C(c2ccccc2)N1c1nc2ccc(Sc3ccccc3)cc2[nH]1 . Output its GI50 only.
14 µM (inactive)

// Input: CC(=O)c1cc2sc3ccccc3c2[nH]1 . Output its GI50 only.
26.7 µM (inactive)

// Input: COc1ccc(/C(Cl)=C(\C=O)c2ccc(OC)c(OC)c2)cc1 . Output its GI50 only.
16.6 µM (inactive)

// Input: O=C1C2C(C(=O)N1c1ccccc1)C1([N+](=O)[O-])C=C3c4ccccc4N(C(=O)c4ccccc4)C32C2C(=O)N(c3ccccc3)C(=O)C21 (stereo unspecified) . Output its GI50 only.
> 100 µM (inactive)

// Input: C[C@H]1[C@H]2[C@H]3CC[C@@H]4[C@@]5(C)CC[C@H](O)C(C)(C)[C@@H]5CC[C@@]4(C)[C@]3(C)C[C@H](O)[C@@]2(C)C[C@H]2O[C@]21C . Output its GI50 only.
23.2 µM (inactive)

// Input: C/C(=N\NC(=O)c1ccncc1)c1sc(-n2nc(-c3ccccc3)cc2-c2ccccc2)nc1C . Output its GI50 only.
> 31.6 µM (inactive)

// Input: COc1nc(C(=O)NNC(=O)c2nc(OC)c3ccccc3c2-c2ccccc2)c(-c2ccccc2)c2ccccc12 . Output its GI50 only.
> 100 µM (inactive)

// Input: COc1cc(/C=C/C(=O)CC(=O)/C=C/c2ccc(O)c(OC)c2)ccc1O [CURCUMIN] . Output its GI50 only.
6.49 µM (inactive)

// Input: COc1ccc(CC2(O)C3CC4CCC2C4C3)cc1 (stereo unspecified) . Output its GI50 only.
> 100 µM (inactive)

// Input: CC1(C)C(C#N)C1C1=C(N2CCOCC2)[C@]2(C)C(OC(=O)c3ccccc3)CC[C@@H]2C1 (stereo partly specified) . Output its GI50 only.
> 100 µM (inactive)

// Input: CCCCCCCCCCCCCCCCP(=O)([O-])OCC[N+](C)(C)C . Output its GI50 only.
13.9 µM (inactive)
